# TGI per record follows
Test system: HCT-116 colon
method: NCI tumour cell line growth inhibition, 48 h

Previously resolved entries follow.
compound=COc1ccc2c(c1)/C(=C/c1c(C)nc3sc(C)nn13)C(=O)N2 parameter_measured=TGI result="> 100 µM"
compound=C[C@@]12C[C@@H](c3ccccc3O1)N1CCCCSC1=N2 parameter_measured=TGI result="> 100 µM"
compound="O=C(COc1ccc(Br)cc1Br)N1N=C(c2ccc([N+](=O)[O-])o2)CC1(O)c1ccccc1 (stereo not given)" parameter_measured=TGI result="33.2 µM"
compound="O=C1CC(c2ccc3c(c2)OCO3)Nc2ccccc21 (stereo not given)" parameter_measured=TGI result="23.9 µM"

// query TGI value for entry O=C1/C(=C/c2ccc(O)cc2)CC/C1=C\c1ccc(O)cc1 > 100 µM

// query TGI value for entry O=[N+]([O-])/C(C(Cl)=C(Cl)Cl)=C(\SCc1ccccc1)N1CCCCC1 31.3 µM

// query TGI value for entry Cn1c2ccccc2c2c(Nc3ccccc3)c3ccccc3nc21 36.1 µM

// query TGI value for entry C=C(CN1CCN(c2ccc(Cl)cc2F)CC1)c1ccc(C(=O)Nc2ccccc2N)cc1 > 94.2 µM

// query TGI value for entry N=c1n(C(=O)N2CCCC2)c2cc(Cl)ccc2n1C1=NCCN1 > 100 µM

// query TGI value for entry COc1cc([C@@H]2OCC3C(c4ccc5c(c4)OCO5)OCC32)cc(OC)c1OC (stereo not given in full) > 100 µM

// query TGI value for entry O=C1CCC(=O)N1n1c(Cc2ccccc2)n[nH]c1=O > 100 µM

// query TGI value for entry Cc1ccccc1-n1c(=O)c2ncn(CCCl)c2n(-c2ccccc2C)c1=S > 100 µM

// query TGI value for entry O=C1C(=Cc2ccc(O)cc2)N=C(c2ccccc2)N1n1c(-c2ccccc2)nc2ccccc2c1=O > 100 µM

// query TGI value for entry O=[N+]([O-])C(=C1NCCN1)/C(Cl)=C(\Cl)Br > 73.2 µM

// query TGI value for entry C=C(C1=CC(=O)C(C)(C)O1)[C@@H]1CC=C([C@@H]2CC[C@H]3[C@@]2(C)CC[C@H]2C(C)(C)C(=O)[C@H](O)C[C@]32C)[C@H](O)O1 3 µM

----------
# TGI per record follows
Test system: TK-10 renal
method: NCI tumour cell line growth inhibition, 48 h

Previously resolved entries follow.
molecule=COC1=CC(=O)c2nc(-c3ccncc3)[nH]c2C1=O parameter_measured=TGI result="> 100 µM"
molecule=CC1(C)N=C(/C(Cl)=[N+](/[O-])C(=O)c2ccc(F)cc2)C(C)(C)N1O parameter_measured=TGI result="29.7 µM"

Proceed to the following item.
// query TGI value for entry CC[C@@]1(O)C(=O)OCc2c1cc1n(c2=O)Cc2c-1nc1ccccc1c2/C=N\NC(=O)CN > 100 µM

----------
System: SNB-78 CNS
method: NCI tumour cell line growth inhibition, 48 h
parameter measured: TGI

Previously resolved entries follow.
molecule="N#CC(c1ccc(Cl)cc1)c1cccc(C(C#N)c2ccc(Cl)cc2)n1 (stereo not given)" result="> 100 µM"
molecule="CC(C)CCCCCCCCCCCCC(=O)NCC(=O)NC1C(C)OC(Nc2ncnc3c2ncn3C)C(O)C1O (stereo not given)" result="> 100 µM"

Observed TGI on SNB-78 CNS for O=C(CC1(O)C(=O)Nc2c(Cl)cc(Cl)cc21)c1ccc(Br)cc1Br (stereo not given) , please. > 74.9 µM

Observed TGI on SNB-78 CNS for C[n+]1c2ccccc2c(/C=N\NS(=O)(=O)c2ccc(O)c(C(=O)O)c2)c2ccccc21 , please. > 100 µM

Observed TGI on SNB-78 CNS for C/C(CC(=O)CCC(=O)Nc1cccc(C(F)(F)F)c1)=N\NC(=O)NN , please. > 100 µM

----------
Tested on: SR leukemia
method: NCI tumour cell line growth inhibition, 48 h
parameter measured: TGI

compound=COc1cc(-c2nn(-c3ccc(NC(=O)c4ccc(Cl)c(C(F)(F)F)c4)cc3)cc2-c2ccncc2)ccc1Cl target="SR leukemia" parameter_measured=TGI result="> 37.8 µM"
compound="O=C1CC(c2ccc3c(c2)OCO3)Nc2ccccc21 (stereo not given)" target="SR leukemia" parameter_measured=TGI result="> 100 µM"
compound="COc1ccc(C(OCC2OC(n3cc(C)c(=O)[nH]c3=O)CC2n2cc(Cn3cc(I)c(=O)[nH]c3=O)nn2)(c2ccccc2)c2ccccc2)cc1 (stereo not given)" target="SR leukemia" parameter_measured=TGI result="> 100 µM"
compound=Cc1ccc(NC2=C(Cl)C(=O)N(Cc3ccccc3)C2=O)cc1O target="SR leukemia" parameter_measured=TGI result="> 100 µM"

// query TGI value for entry C[C@]12CC[C@H](O)CC1=CC[C@@H]1C2CC[C@]2(C)C(=O)N(N)C(=O)CC12 (stereo not given in full) > 100 µM

----------
Test system: HL-60(TB) leukemia
method: NCI tumour cell line growth inhibition, 48 h
parameter measured: TGI

compound=Brc1ccc(N=c2nc3ccccn3n3nc(-c4ccccc4)cc23)cc1 target="HL-60(TB) leukemia" result="> 100 µM"

// query TGI value for entry C/C(CC(=O)CCC(=O)Nc1cccc(C(F)(F)F)c1)=N\NC(=O)NN > 100 µM

// query TGI value for entry O=C(O)c1ccccc1[Se][Se]c1ccccc1C(=O)O > 100 µM

----------
# GI50 per record follows
System: SF-268 CNS
method: NCI tumour cell line growth inhibition, 48 h
Where a SMILES comes first, the peptide text is derived from it. [ ]: non-standard residue; d: D form. The star is where a group is joined. ξ: configuration not given here. X6 = FC(F)(F)c1cc(NC(=S)*)cc(C(F)(F)F)c1; ξF = NC(Cc1ccccc1)C(=O)O

compound=Cc1cc(I)cc(CN(C)CCCCN2CCCCC2)c1O result="12.5 µM"
compound="COC(=O)[C@@H](NC(=O)CNC(=O)[C@H]1CCCN1C(=O)C(Cc1ccccc1)NC(=S)Nc1cc(C(F)(F)F)cc(C(F)(F)F)c1)C(C)C (some centres undefined) (X6-[ξF][dP]GV-OMe)" result="2.98 µM"
compound=COc1cc(CNc2cnc3cc(N)cc(N)c3n2)cc(OC)c1 result="15.8 µM"

Proceed to the following item.
// query GI50 value for entry Cc1nc2ccccc2c(N)c1-c1cc(C)c2c(C)nc3ccccc3c2n1 0.628 µM

----------
# TGI per record follows
Tested on: OVCAR-3 ovarian
method: NCI tumour cell line growth inhibition, 48 h

Previously resolved entries follow.
molecule=N.N.N.N.O=[N+]([O-])[O-].[Co+3].[N-]=[N+]=[N-].[N-]=[N+]=[N-] parameter_measured=TGI result="> 100 µM"
molecule=CCCCCN(CCCCC)CCCNc1c2c(nc3ccc(Cl)cc13)CCCC2 parameter_measured=TGI result="4.36 µM"
molecule=CCOc1cc2c(cc1O)/C(=N\OC)C[C@@H]1[C@@H]2CC[C@]2(C)[C@@H](O)CC[C@@H]12 parameter_measured=TGI result="2.29 µM"
molecule=N=c1n(C(=O)N2CCCC2)c2cc(Cl)ccc2n1C1=NCCN1 parameter_measured=TGI result="> 100 µM"
molecule=CC(=O)NNc1nc(C)c(C(=O)NNC(=O)C(=O)Nc2ccc(Cl)cc2)s1 parameter_measured=TGI result="> 100 µM"
molecule=O=c1[nH][nH]c(=O)n1Cc1ccccc1Cn1c(=O)[nH][nH]c1=O parameter_measured=TGI result="> 100 µM"
molecule=COc1c(C)c(C/C=C(\C)CCCCO[Si](c2ccccc2)(c2ccccc2)C(C)(C)C)c(OC)c(OC)c1OC parameter_measured=TGI result="> 46.4 µM"
molecule=CN(C)C(=N)c1ccccc1 parameter_measured=TGI result="> 100 µM"

// query TGI value for entry CCCCOC(=O)C1OC(O[C@H]2CCC3(C)C(CCC4(C)C3CC=C3C5CC(C)(C)CCC5(C(=O)O)CC[C@]34C)C2(C)C)C(OC2OC(CO)C(O)C(O)C2O)C(OC2OC(CO)C(O)C(O)C2O)C1O (some centres undefined) > 100 µM

// query TGI value for entry CN1C(=O)C(C)(C)C2(SC(C)(C)C2(C)C)N(C)C1=S (centres undefined) > 100 µM

// query TGI value for entry Cc1ccccc1-n1c(=O)c2ncn(CCCl)c2n(-c2ccccc2C)c1=S > 100 µM

// query TGI value for entry CCC(CO)Nc1nc2ccc(Cl)cc2c2ccccc12 (centres undefined) 24.7 µM

// query TGI value for entry O=C(Cc1cccs1)N[C@@H]1C(=O)N2C(C(=O)OC(c3ccccc3)c3ccccc3)=C(CO)CS[C@H]12 > 100 µM

// query TGI value for entry COc1cc(CNc2cnc3cc(N)cc(N)c3n2)cc(OC)c1 48.3 µM

// query TGI value for entry COC(=O)C1CCC(=O)N1C(c1ccccc1)c1ccc(OC)c(OC)c1 (centres undefined) > 100 µM

// query TGI value for entry COC(=O)CC1CCN(C#N)CC1CC[N+](=O)[O-] (centres undefined) > 100 µM

// query TGI value for entry CCOC(=O)Nn1c(C)nnc1-c1ccccc1 > 100 µM

// query TGI value for entry Cc1cccc(/C=N/NC(=S)Nc2ccccc2)n1 13.6 µM

// query TGI value for entry Oc1cc2c3c(c1)c1cc4c(cc1c[n+]3CC2)OCO4 > 50.9 µM

// query TGI value for entry CCOC(=O)N1CCC2(CC1)C[C@](C)(C(C)=O)C(C)O2 (some centres undefined) > 100 µM

// query TGI value for entry O=C(Nc1ccc(C2=NCCN2)cc1)c1cncc(C(=O)Nc2ccc(C3=NCCN3)cc2)c1 > 100 µM

// query TGI value for entry C#Cc1ccc(-n2c(/C=C/c3ccc(C(F)(F)F)cc3)nc3ncccc3c2=O)cc1 3.17 µM

// query TGI value for entry Cn1cnc([N+](=O)[O-])c1Sc1nnc(-c2cccnc2)n1C 35.1 µM

// query TGI value for entry CNC(=O)OCC1=C(COC(=O)NC)C(C)N(c2ccc(OC)cc2)C1 (centres undefined) > 100 µM
